Where do the numbers come from? From patent US8791139B2.

testSummary: logP by HPLC on reversed-phase columns (C18), EEC Directive 79/831 Annex V.A8
Format: physicochemical
assayContext: reversed-phase HPLC column (C18), pH 2.7, HPLC reversed-phase C18, acidic range pH 2.7, 0.1% aqueous formic acid/acetonitrile; table of compounds of formula (I); read-out: log P
Decide by chromatographic logP: equal to or exceeding 4 means label 1, less means label 0.

molecule: Cc1cc(Cl)cc(C(=O)NC(C)C2CC2)c1NC(=O)c1cc(CNS(=O)(=O)c2cc(C(F)(F)F)cc(C(F)(F)F)c2)nn1-c1ncccc1Cl (stereo not drawn)
assignedLabel: label 1

Please tell me: is the molecule Cc1cc(C#N)cc(C(=O)NC(C)C2CC2)c1NC(=O)c1cc(CN(Cc2cc(C(F)(F)F)cc(C(F)(F)F)c2)S(C)(=O)=O)nn1-c1ncccc1Cl (stereo not drawn) at or over 4 in terms of chromatographic logP?
label 1

Another molecule to check: Cc1cc(Cl)cc(C(=O)NC(C)C)c1NC(=O)c1cc(CN(C)S(=O)(=O)Cc2cc(C(F)(F)F)cc(C(F)(F)F)c2)nn1-c1ncccc1Cl
label 1

Same question for Cc1cc(Cl)cc(C(=O)NC(C)C)c1NC(=O)c1cc(CNS(=O)(=O)c2c(C(F)(F)F)cccc2C(F)(F)F)nn1-c1ncccc1Cl please.
label 0

Repeat with CNC(=O)c1cc(Cl)cc(C)c1NC(=O)c1cc(N2CCN(c3cc(C(F)(F)F)cc(C(F)(F)F)c3)C2=O)nn1-c1ncccc1Cl
label 1

Now this one: Cc1cc(C#N)cc(C(=O)NC(C)(C)C)c1NC(=O)c1cc(N2CCN(c3cc(C(F)(F)F)cc(C(F)(F)F)c3)C2=O)nn1-c1ncccc1Cl
label 1

Try this molecule too: Cc1cc(C#N)cc(C(=O)NC2CC2)c1NC(=O)c1cc(CN(Cc2cc(C(F)(F)F)cc(C(F)(F)F)c2)S(C)(=O)=O)nn1-c1ncccc1Cl
label 0

Same question, Cc1cc(Cl)cc(C(=O)NC(C)C)c1NC(=O)c1cc(CN(C)S(=O)(=O)c2cc(C(F)(F)F)cc(C(F)(F)F)c2)nn1-c1ncccc1Cl this time
label 1

Now consider Cc1cc(C#N)cc(C(=O)NC(C)C)c1NC(=O)c1cc(N2CCN(c3cc(C(F)(F)F)cc(C(F)(F)F)c3)C2=O)nn1-c1ncccc1Cl and answer again.
label 1

Entry to check: Cc1cc(Cl)cc(C(=O)NC(C)C)c1NC(=O)c1cc(C(=O)Nc2cc(C(F)(F)F)cc(C(F)(F)F)c2)nn1-c1ncccc1Cl
label 1

Also need Cc1cc(Cl)cc(C(=O)NC(C)C)c1NC(=O)c1cc(CN(Cc2cc(C(F)(F)F)cc(C(F)(F)F)c2)S(C)(=O)=O)nn1-c1ncccc1Cl , thanks.
label 1

And then Cc1cc(Cl)cc(C(=O)NC(C)C2CC2)c1NC(=O)c1cc(CN(Cc2cc(C(F)(F)F)cc(C(F)(F)F)c2)S(C)(=O)=O)nn1-c1ncccc1Cl (stereo not drawn) , what is it?
label 1

Similarly, Cc1cc(Cl)cc(C(=O)NC(C)C)c1NC(=O)c1cc(CNS(=O)(=O)c2cc(C(F)(F)F)ccc2C(F)(F)F)nn1-c1ncccc1Cl ?
label 0

Now the molecule Cc1cc(Cl)cc(C(=O)NC(C)C)c1NC(=O)c1cc(N2CCN(c3cc(C(F)(F)F)cc(C(F)(F)F)c3)C2=O)nn1-c1ncccc1Cl
label 1

Moving on to the next molecule: CNC(=O)c1cc(Cl)cc(C)c1NC(=O)c1cc(CNS(=O)(=O)c2cc(C(F)(F)F)cc(C(F)(F)F)c2)nn1-c1ncccc1Cl
label 0

Another molecule to look at: Cc1cc(Cl)cc(C(=O)NC(C)(C)C)c1NC(=O)c1cc(N2CCN(c3cc(C(F)(F)F)cc(C(F)(F)F)c3)C2=O)nn1-c1ncccc1Cl
label 1
